Attribution: ChEMBL document CHEMBL1150783

- Tested on: Staphylococcus sp.
- PROTOCOL NOTES: Antibacterial activity against methicillin-resistant coagulase-negative Staphylococcus sp. by CLSI dilution method
- Type: functional
MEASUREMENT TYPE: MIC90 (µg/mL)
All answers are understood in µg/mL, so give the number only.

QUERY: For `Cc1c(N)cccc1Cn1ccc(OCCc2cccs2)cc1=O` , what is its reported MIC90?
RESULT: 4

QUERY: Given `C[C@H]1COc2c(N3CCN(C)CC3)c(F)cc3c(=O)c(C(=O)O)cn1c23.C[C@H]1COc2c(N3CCN(C)CC3)c(F)cc3c(=O)c(C(=O)O)cn1c23.O` , state its recorded MIC90.
RESULT: 32

QUERY: Using the record for `CC(=O)NC[C@H]1CN(c2ccc(N3CCOCC3)c(F)c2)C(=O)O1` , report its MIC90.
RESULT: 2

QUERY: Given the entry `CN[C@H](CC(C)C)C(=O)N[C@H]1C(=O)N[C@@H](CC(N)=O)C(=O)N[C@H]2C(=O)N[C@H]3C(=O)N[C@H](C(=O)N[C@H](C(=O)O)c4cc(O)cc(O)c4-c4cc3ccc4O)[C@H](O)c3ccc(c(Cl)c3)Oc3cc2cc(c3O[C@@H]2O[C@H](CO)[C@@H](O)[C@H](O)[C@H]2O[C@H]2C[C@](C)(N)[C@H](O)[C@H](C)O2)Oc2ccc(cc2Cl)[C@H]1O` , report its measured MIC90.
RESULT: 2

QUERY: Can you share its MIC90? I mean this molecule: `CN(C)[C@@H]1C(O)=C(C(N)=O)C(=O)[C@@]2(O)C(O)=C3C(=O)c4c(O)cccc4[C@@](C)(O)[C@H]3C[C@@H]12`
RESULT: 128
